System: field-stimulated guinea pig ileum
Assay: Gastrokinetic Activity: contraction of field-stimulated guinea pig ileum preparations
Set-up: species or system guinea pig (Hartley)
Conditions: Cavia porcellus; at 30 μM; read-out: Average % Maximum Increase
quantityMeasured: activation at 30 µM
Number first, unit second.

>  <compound>
CCN(CC)CCNC(=O)c1cc(Cl)c(N)cc1OCCCC(=O)N(CC)CC

>  <activation at 30 µM>
59%

$$$$

Which value of activation at 30 µM has been reported for CCN(CC)CCNC(=O)c1cc(Cl)c(N)cc1OC [Metoclopramide, reference compound] in the records?
62%

Same read-out for CCN(CC)CCNC(=O)c1cc(Cl)c(N)cc1OC(C)C#N (centres unmarked) ?
55%

Record: CCN(CC)CCNC(=O)c1cc(Cl)c(N)cc1OCCC[S+](C)[O-] (centres unmarked)
45%

Repeat for the following compound: CCN(CC)CCNC(=O)c1cc(Cl)c(N)cc1OCCCC[S+](C)[O-] (centres unmarked)
72%
